- Assayed Target: T1, mouse GIP receptor (mouse, UniProt Q0P543 19-460)
- T1 sequence (looked up): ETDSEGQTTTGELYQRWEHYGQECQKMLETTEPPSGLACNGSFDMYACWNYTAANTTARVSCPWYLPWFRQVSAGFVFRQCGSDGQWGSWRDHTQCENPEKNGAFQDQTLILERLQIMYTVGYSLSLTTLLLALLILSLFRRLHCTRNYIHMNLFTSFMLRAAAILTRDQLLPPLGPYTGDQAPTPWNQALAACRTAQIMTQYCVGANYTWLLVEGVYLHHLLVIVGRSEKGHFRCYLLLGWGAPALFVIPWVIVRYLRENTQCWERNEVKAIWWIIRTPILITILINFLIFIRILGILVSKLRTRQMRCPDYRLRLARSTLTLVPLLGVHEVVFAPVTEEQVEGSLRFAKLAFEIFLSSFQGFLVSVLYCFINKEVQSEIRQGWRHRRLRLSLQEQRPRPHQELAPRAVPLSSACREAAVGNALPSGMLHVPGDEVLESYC
- Method Notes: cell-based or functional assay
cAMP EC50 strictly under 8 nM means Condition met; at 8 nM or over means Condition not met.

Sample answers from the record:
IP360 (Fc fusion) YSEGTFTSDYRILLEEEAVRLFIEWLLAGGGGGGSGGGGSGGGGSGGGGSATHTCPPC :: Condition met
IP295 (Fc fusion) YSEGTFTSDYSKLLEEEAVRLFIEWLLAGGPSSGAPPPSGGGGGSGGGGSGGGGSGGGGSATHTCPPC :: Condition met
IP363 (Fc fusion) YSEGTFTSDYRMLKEEEAVRLFIEWLLAGGGGGGSGGGGSGGGGSGGGGSATHTCPPC :: Condition met
IP304 (Fc fusion) YSEGTFTSDVSSYLERQAIEEFIAWLLKGGAAAGGSGSTASSGSGSATGGGGAATHTCPPC :: Condition not met
IP268 (Fc fusion) YSEGTFTSDYSKLLEEEAVRLFIEWLVKGPGGGGGSGGGGSGGGGSGGGGSATHTCPPC :: Condition not met

Q: Bench note: check whether IP085 (Fc fusion) YSEGTFTSDYSKLLEEEAVRLFIEWLLAGAPPGGSGSTASSGSGSATGGGGAATHTCPPCPAPEF shows cAMP EC50 below 8 nM
A: Condition met

Q: # repeat for IP272 (Fc fusion) YSEGTFTSDYSKLLEEEAVRLFIEWLLAQKAPPGGSGSTASSGSGSATGGGGAATHTCPPC
A: Condition not met

Q: And what about the binder IP237 (Fc fusion) YSEGTFTSDYSKLLEEEAVRLFIEWLVKGPGGGGGSGGGGSGGGGSGGGGSATHTCPPCPAPEF ?
A: Condition not met

Q: What about this binder? IP201 (Fc fusion) YSEGTFTSDYSKLLEEEAVRLFIEWLLAGPSSGAPPPSAAAGGSGSTASSGSGSATGGGGAATHTCPPCPAPEF
A: Condition met

Q: And what about the binder IP357 (Fc fusion) YSEGTFTSDFSKLLEEEAVRLFIEFLLAGGGGGGSGGGGSGGGGSGGGGSATHTCPPC ?
A: Condition not met
